- Test system: 168753-222-R-J1-PDC complex spheroid viability
- METHOD DESCRIPTION: Anticancer human tumor 168753-222-R-J1-PDC patient-derived bladder carcinoma cell line growth inhibition [CLK]; active = viability on the fitted dose curve at most 10% of control; inactive = the rest
- EXPERIMENTAL CONDITIONS: second compound 3.16 µM; first compound 0.000949 µM
Respond only with the outcome that fits, drawn from class 1 (active), class 0 (inactive)

What outcome does the record of this test show for CC(C)CC(NC(=O)C(Cc1ccccc1)NC(=O)c1cnccn1)B(O)O (centres undefined) + CN1CCN(c2cc(C(=O)Nc3cc4cc(-c5cnn(C)c5)ccc4cn3)ccn2)CC1 ?
class 1

What outcome does the record of this test show for CC(C)CC(NC(=O)C(Cc1ccccc1)NC(=O)c1cnccn1)B(O)O (centres undefined) + CNC(=O)c1ccc(Nc2nc(OC3CCCC3)c3c(-c4ccc5nc(C)oc5c4)c[nH]c3n2)c(OC)c1 ?
class 0

Others:
What outcome does the record of this test show for C=CC(=O)Nc1cc(Nc2nccc(-c3cn(C)c4ccccc34)n2)c(OC)cc1N(C)CCN(C)C + CN1CCN(c2cc(C(=O)Nc3cc4cc(-c5cnn(C)c5)ccc4cn3)ccn2)CC1 ?
class 1

What outcome does the record of this test show for C=CC(=O)Nc1cc(Nc2nccc(-c3cn(C)c4ccccc34)n2)c(OC)cc1N(C)CCN(C)C + CNC(=O)c1ccc(Nc2nc(OC3CCCC3)c3c(-c4ccc5nc(C)oc5c4)c[nH]c3n2)c(OC)c1 ?
class 0

---

- Tested on: 168753-222-R-J1-PDC complex spheroid viability
- METHOD DESCRIPTION: Anticancer human tumor 168753-222-R-J1-PDC cell line growth inhibition [CLK];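 also: luminescence signal used as surrogate for viable cell amount; viability measured after seven days of drug exposure; 100% = DMSO vehicle control wells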
- EXPERIMENTAL CONDITIONS: second compound 1 µM; first compound 10 µM; active compounds read low
READOUT KIND: viability, T/C (%)
Please reply with the bare figure in % and do not write the unit itself.

A selection of reference data follows.
Give the reported viability, T/C for this compound. Nc1ccn(C2OC(CO)C(O)C2(F)F)c(=O)n1 (stereo not given) + CN1CCN(c2cc(C(=O)Nc3cc4cc(-c5cnn(C)c5)ccc4cn3)ccn2)CC1
0.21

Give the reported viability, T/C for this compound. CCCS(=O)(=O)Nc1ccc(F)c(C(=O)c2c[nH]c3ncc(-c4ccc(Cl)cc4)cc23)c1F + CNC(=O)c1ccc(Nc2nc(OC3CCCC3)c3c(-c4ccc5nc(C)oc5c4)c[nH]c3n2)c(OC)c1
28.6

Give the reported viability, T/C for this compound. COc1cccc2c1C(=O)c1c(O)c3c(c(O)c1C2=O)CC(O)(C(=O)CO)CC3OC1CC(N)C(O)C(C)O1 (stereo not given) + CNC(=O)c1ccc(Nc2nc(OC3CCCC3)c3c(-c4ccc5nc(C)oc5c4)c[nH]c3n2)c(OC)c1
0.13

Others:
Give the reported viability, T/C for this compound. COc1cccc2c1C(=O)c1c(O)c3c(c(O)c1C2=O)CC(O)(C(=O)CO)CC3OC1CC(N)C(O)C(C)O1 (stereo not given) + CN1CCN(c2cc(C(=O)Nc3cc4cc(-c5cnn(C)c5)ccc4cn3)ccn2)CC1
1.29

Give the reported viability, T/C for this compound. CC(Nc1ccc2c(c1)OCCn1cc(N3C(=O)OCC3C(F)F)nc1-2)C(N)=O (stereo not given) + CNC(=O)c1ccc(Nc2nc(OC3CCCC3)c3c(-c4ccc5nc(C)oc5c4)c[nH]c3n2)c(OC)c1
2.28

Give the reported viability, T/C for this compound. CC1COCCN1c1cc(C2(S(C)(=N)=O)CC2)nc(-c2ccnc3[nH]ccc23)n1 (stereo not given) + CN1CCN(c2cc(C(=O)Nc3cc4cc(-c5cnn(C)c5)ccc4cn3)ccn2)CC1
0.82

Give the reported viability, T/C for this compound. CC1COCCN1c1cc(C2(S(C)(=N)=O)CC2)nc(-c2ccnc3[nH]ccc23)n1 (stereo not given) + CNC(=O)c1ccc(Nc2nc(OC3CCCC3)c3c(-c4ccc5nc(C)oc5c4)c[nH]c3n2)c(OC)c1
18.1

Give the reported viability, T/C for this compound. CCCS(=O)(=O)Nc1ccc(F)c(C(=O)c2c[nH]c3ncc(-c4ccc(Cl)cc4)cc23)c1F + CN1CCN(c2cc(C(=O)Nc3cc4cc(-c5cnn(C)c5)ccc4cn3)ccn2)CC1
2.48

Give the reported viability, T/C for this compound. CC1(C)CCC(CN2CCN(c3ccc(C(=O)NS(=O)(=O)c4ccc(NCC5CCOCC5)c([N+](=O)[O-])c4)c(Oc4cnc5[nH]ccc5c4)c3)CC2)=C(c2ccc(Cl)cc2)C1 + CNC(=O)c1ccc(Nc2nc(OC3CCCC3)c3c(-c4ccc5nc(C)oc5c4)c[nH]c3n2)c(OC)c1
13.8

Give the reported viability, T/C for this compound. C=C(F)C(=O)N1CCN(c2nc(OCC3CCCN3C)nc3c2CCN(c2cccc4cccc(Cl)c24)C3)CC1CC#N (stereo not given) + CN1CCN(c2cc(C(=O)Nc3cc4cc(-c5cnn(C)c5)ccc4cn3)ccn2)CC1
1.07
